molecular target: Fatty-acid amide hydrolase 1 (Homo sapiens); experiment: Inhibition of human recombinant FAAH using arachidonoyl-AMC as substrate preincubated for 30 mins followed by substrate addition measured after 60 mins by fluorescence assay
Sequence (O00519 whole entry): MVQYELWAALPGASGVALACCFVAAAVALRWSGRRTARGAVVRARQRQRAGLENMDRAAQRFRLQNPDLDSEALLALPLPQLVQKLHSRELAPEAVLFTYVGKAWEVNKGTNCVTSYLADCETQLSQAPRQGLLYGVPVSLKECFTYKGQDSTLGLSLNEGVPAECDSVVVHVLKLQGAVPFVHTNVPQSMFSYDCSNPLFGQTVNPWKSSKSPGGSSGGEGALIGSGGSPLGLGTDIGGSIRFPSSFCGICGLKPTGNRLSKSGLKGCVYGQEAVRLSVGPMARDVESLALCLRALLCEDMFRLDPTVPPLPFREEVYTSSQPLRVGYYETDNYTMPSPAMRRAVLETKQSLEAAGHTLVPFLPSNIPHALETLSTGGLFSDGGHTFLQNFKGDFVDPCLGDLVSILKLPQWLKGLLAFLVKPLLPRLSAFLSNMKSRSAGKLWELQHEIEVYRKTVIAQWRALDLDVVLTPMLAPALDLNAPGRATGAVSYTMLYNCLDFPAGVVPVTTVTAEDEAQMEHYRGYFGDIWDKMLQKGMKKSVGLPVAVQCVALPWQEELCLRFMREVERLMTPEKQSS
The following molecules are shown together with reported IC50 values.

smiles_text=Cn1ccc(C2CN(C(=O)OC(C(F)(F)F)C(F)(F)F)C2)n1 study_system="Fatty-acid amide hydrolase 1 (Homo sapiens)" result="> 20000 nM"
smiles_text=O=C(OC(C(F)(F)F)C(F)(F)F)N1CC(c2ccnc(N3CCOCC3)n2)C1 study_system="Fatty-acid amide hydrolase 1 (Homo sapiens)" result="> 30000 nM"
smiles_text=O=C(OC(C(F)(F)F)C(F)(F)F)N1CC(c2ccn(Cc3ccccc3)n2)C1 study_system="Fatty-acid amide hydrolase 1 (Homo sapiens)" result="160 nM"

Input line: Quick one: IC50 for O=C(OC(C(F)(F)F)C(F)(F)F)N1CC(c2ccn(-c3cnccn3)n2)C1 ?
Output line: 1100 nM

Input line: GET /values?readout=IC50&item= O=C(OC(C(F)(F)F)C(F)(F)F)N1CC(c2ccn(-c3ccc(F)c(F)c3)n2)C1
Output line: 670 nM

Input line: Reported IC50, molecule O=C(OC(C(F)(F)F)C(F)(F)F)N1CC(c2ccn(-c3ccccc3)n2)C1 : ____
Output line: 260 nM
